biological target: NS3 protease S139A/R155Q (Hepatitis C virus genotype 1b, UniProt P26663, R1181Q/S1165A); construct: The N-terminal domain from full-length NS3 protein corresponding to NS3 protease was expressed and purified; made in house; test: ITC binding to Zn^+2-free NS3 protease, S139A/R155Q; conditions: 25°C, 100 mM sodium acetate, 2 mM EDTA, pH 5; relative error 15%
Sequence (P26663 1027-1208 S1165A/R1181Q): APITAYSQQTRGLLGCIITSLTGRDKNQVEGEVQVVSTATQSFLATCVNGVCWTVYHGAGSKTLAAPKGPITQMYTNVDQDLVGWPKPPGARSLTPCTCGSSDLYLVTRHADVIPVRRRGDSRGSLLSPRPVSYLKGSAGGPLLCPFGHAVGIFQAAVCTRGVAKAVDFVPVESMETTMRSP
READOUT_LABEL: Kd
Answer format: number, then unit.

Below are worked cases with known answers.
What value of Kd on NS3 protease S139A/R155Q (Hepatitis C virus genotype 1b, UniProt P26663, R1181Q/S1165A) does CCOc1ccc(Cc2nccc3cc(OCC)c(OCC)cc23)cc1OCC [Compound 8] have?
42 µM

What value of Kd on NS3 protease S139A/R155Q (Hepatitis C virus genotype 1b, UniProt P26663, R1181Q/S1165A) does CC(=O)C1CCC2C3C=CC4=CC(=O)CCC4(C)C3CCC12C (stereo not shown) [Compound 7] have?
4.2 µM

What value of Kd on NS3 protease S139A/R155Q (Hepatitis C virus genotype 1b, UniProt P26663, R1181Q/S1165A) does COC(=O)[C@H]1[C@H]2C[C@@H]3c4[nH]c5cc(OC)ccc5c4CCN3C[C@H]2C[C@@H](OC(=O)/C=C/c2cc(OC)c(OC)c(OC)c2)[C@@H]1OC [Compound 6] have?
23 µM

Proceed to the following item.
What value of Kd on NS3 protease S139A/R155Q (Hepatitis C virus genotype 1b, UniProt P26663, R1181Q/S1165A) does Nc1c2c(nc3ccccc13)CCCC2 [Compound 5] have?
32 µM

====

test system: genotype 1b Con1 HCV subgenomic replicons (Huh 5-2); experiment: microbe, parasite or virus in culture; details: ratio of CC50 to EC50 in Huh 5-2 cells
READOUT_LABEL: CC50/EC50

Below are worked cases with known answers.
// query CC50/EC50 value for entry COC(=O)[C@H]1[C@H]2C[C@@H]3c4[nH]c5cc(OC)ccc5c4CCN3C[C@H]2C[C@@H](OC(=O)/C=C/c2cc(OC)c(OC)c(OC)c2)[C@@H]1OC [Compound 6]
>6

// query CC50/EC50 value for entry CC(=O)C1CCC2C3C=CC4=CC(=O)CCC4(C)C3CCC12C (stereo not shown) [Compound 7]
>60

More entries:
// query CC50/EC50 value for entry CCOc1ccc(Cc2nccc3cc(OCC)c(OCC)cc23)cc1OCC [Compound 8]
15

// query CC50/EC50 value for entry COC(=O)Nc1nc2ccc(C(=O)c3cccs3)cc2[nH]1 [Compound 1]
>4000
